Just for reference, PubChem BioAssay (NCI) is where these values come from.

- Tested on: ACHN renal
- protocol.notes: NCI tumour cell line growth inhibition, 48 h
Some molecules, each annotated with its measured TGI.

// solved cases for TGI follow
O=C1CCCc2cc3c(cc21)CC1(C3)Cc2cc3c(cc2C1)C(=O)CCC3 | 35.8 µM
C/C=C/C(O)P(=O)(OC)OC (stereo not drawn) | 1.25 µM

For the molecule O[C@]12c3ccccc3C1CCCC2N1CCOCC1 (stereo partly drawn) , give its measured TGI value.
> 100 µM

For the molecule CCOC(=O)/C(=C/c1ccccc1)N(CC)CC , give its measured TGI value.
> 100 µM

For the molecule Nc1n[nH]c2cc(F)c([C@@H]3Nc4c(F)cc5[nH]ncc5c4[C@H]4C5CCC(C5)[C@@H]34)cc12 (stereo partly drawn) , give its measured TGI value.
11.1 µM
